Examples of molecules with documented GI50 follow.
# Test system: MCF7
# method_notes: Growth inhibition of human MCF7 cells incubated for 48 hrs by sulforhodamine B assay
# Assay type: functional
Could you kindly put the unit after your number?

Worked cases, answers included:
molecule	GI50
O=c1cccc([C@H]2[C@H](c3ccccc3)[C@H](c3cccc(=O)o3)[C@H]2c2ccccc2)o1	12.2 µM
O=c1cccc(/C=C/c2ccccc2)o1	107 µM
COc1cccc2c1C(=O)c1c(O)c3c(c(O)c1C2=O)C[C@@](O)(C(=O)CO)C[C@@H]3O[C@H]1C[C@H](N)[C@H](O)[C@H](C)O1 [DOXORUBICIN]	0.25 µM

Now, please, on to the next molecule.
Data request, read-out GI50, for O=C1C=C[C@@H]2[C@H](c3ccccc3)[C@@H](c3cccc(=O)o3)[C@]2(/C=C/c2ccccc2)O1 50.2 µM
